The binders listed here are annotated with their Relative Binding to PCSK9 Measured by DELIFA Immunoassay.
target: proprotein convertase subtilisin/kexin type 9 (PCSK9) (human) (UniProt Q8NBP7); experiment: DELFIA immunoassay (PerkinElmer Cat. #1244-330), full-length IgG on PCSK9
# respond with the number and nothing more

AB-6 (antibody, V domains shown) VH: QVQLVQSGAEVKKPGASVKVSCKASGYTFTSYYMHWVRQAPGQGLEWMGEISPFGGTTNYNEKFKSRVTMTRDTSTSTVYMELSSLRSEDTAVYYCARERPLYSSDVWGQGTTVTVSS VL: DIQMTQSPSSLSASVGDRVTITCRASQGISSALAWYQQKPGKAPKLLIYSASYLYSGVPSRFSGSGSGTDFTFTISSLQPEDIATYYCQQRYSLWYTFGQGTKLEIK    1.8

Turning to the following binder.
Tell me Relative Binding to PCSK9 Measured by DELIFA Immunoassay reported for AB-3 (antibody, V domains shown) VH: QVQLVQSGAEVKKPGASVKVSCKASGYTFTSYWMHWVRQAPGQGLEWMGEIDPSGGSTNYNQKFQSRVTMTRDTSTSTVYMELSSLRSEDTAVYYCARERPLYASDVWGQGTTVTVSS VL: DIQMTQSPSSLSASVGDRVTITCRASQGISSALAWYQQKPGKAPKLLIYSASYRYTGVPSRFSGSGSGTDFTFTISSLQPEDIATYYCQQRYSLWRTFGQGTKLEIK
2.8
